# Test system: KB
# assay-remarks: Antiviral activity against Rhinovirus type 13 infected in human KB cells assessed as inhibition of virus-induced cytopathic effect at 1 to 1000 ug/ml after 72 hrs
# Assay type: functional, cell-based
# condition-context: Human rhinovirus A13
Active and inactive are the calls of the source. The calls are words filed in the database; no cut-off is given here.
Give your call using only these classes: T (active), F (inactive)

Before answering, review these 3 worked examples.
O=c1nc(Cl)cc2n([C@@H]3O[C@H](COCc4ccccc4)[C@@H](OCc4ccccc4)[C@@H]3OCc3ccccc3)ccn12: F
Nc1cc2n([C@@H]3O[C@H](COCc4ccccc4)[C@@H](OCc4ccccc4)[C@@H]3OCc3ccccc3)ccn2c(=O)n1: T
O=c1nccc2n([C@@H]3O[C@H](COCc4ccccc4)[C@@H](OCc4ccccc4)[C@@H]3OCc3ccccc3)ccn12: T

Hi, sorry to bother you, what did the test record for C[Si](C)(C)Oc1nc(Cl)cc2nccn12 ?
F
